The entries below are paired with their reported Km.
Substrate: C[C@H](O)[C@H](N)C(=O)O
assay_procedure: purified protein
Type: biochemical, Escherichia coli
study_conditions: 20 mM potassium phosphate, pH 7.0, 30 °C, retro-aldol cleavage
State just the number; it will be interpreted in µM.

>  <protein>
low-specificity Escherichia coli L-threonine aldolase (eTA) (Escherichia coli K-12; H126N) (protein) MIDLRSDTVTRPSRAMLEAMMAAPVGDDVYGDDPTVNALQDYAAELSGKEAAIFLPTGTQANLVALLSHCERGEEYIVGQAAHNYLFEAGGAAVLGSIQPQPIDAAADGTLPLDKVAMKIKPDDINFARTKLLSLENTHNGKVLPREYLKEAWEFTRERNLALHVDGARIFNAVVAYGCELKEITQYCDSFTICLSKGLGTPVGSLLVGNRDYIKRAIRWRKMTGGGMRQSGILAAAGIYALKNNVARLQEDHDNAAWMAEQLREAGADVMRQDTNMLFVRVGEENAAALGEYMKARNVLINASPIVRLVTHLDVSREQLAEVAAHWRAFLAR

>  <unit_of_measure>
µM

>  <meas_value>
960

$$$$

What does the record list as Km for low-specificity Escherichia coli L-threonine aldolase (eTA) (Escherichia coli K-12) (protein) MIDLRSDTVTRPSRAMLEAMMAAPVGDDVYGDDPTVNALQDYAAELSGKEAAIFLPTGTQANLVALLSHCERGEEYIVGQAAHNYLFEAGGAAVLGSIQPQPIDAAADGTLPLDKVAMKIKPDDIHFARTKLLSLENTHNGKVLPREYLKEAWEFTRERNLALHVDGARIFNAVVAYGCELKEITQYCDSFTICLSKGLGTPVGSLLVGNRDYIKRAIRWRKMTGGGMRQSGILAAAGIYALKNNVARLQEDHDNAAWMAEQLREAGADVMRQDTNMLFVRVGEENAAALGEYMKARNVLINASPIVRLVTHLDVSREQLAEVAAHWRAFLAR ?
240

Data origin, for the record: paper PMC4366684
